Entry source: ChEMBL document CHEMBL1949611

Species on record: Rattus norvegicus
test-name: Activity of rat glutaryl-co A dehydrogenase expressed in Escherichia coli BL21
observable: Km (µM)

Use these answered entries as a reference point.
molecule	observable	result-units	assay-value
CCCC(=O)SCCNC(=O)CCNC(=O)C(O)C(C)(C)COP(=O)(O)OP(=O)(O)OC[C@H]1O[C@@H](n2cnc3c(N)ncnc32)[C@H](O)[C@@H]1OP(=O)(O)O (stereo not given in full)	Km	µM	12
CC/C=C\CC(=O)SCCNC(=O)CCNC(=O)C(O)C(C)(C)COP(=O)(O)OP(=O)(O)OC[C@H]1O[C@@H](n2cnc3c(N)ncnc32)[C@H](O)[C@@H]1OP(=O)(O)O (stereo not given in full)	Km	µM	49
CCCC/C=C/CC(=O)SCCNC(=O)CCNC(=O)C(O)C(C)(C)COP(=O)(O)OP(=O)(O)OC[C@H]1O[C@@H](n2cnc3c(N)ncnc32)[C@H](O)[C@@H]1OP(=O)(O)O (stereo not given in full)	Km	µM	58

(I) CCCCCC(=O)SCCNC(=O)CCNC(=O)C(O)C(C)(C)COP(=O)(O)OP(=O)(O)OC[C@H]1O[C@@H](n2cnc3c(N)ncnc32)[C@H](O)[C@@H]1OP(=O)(O)O (stereo not given in full)
(II) CCCCCC/C=C\CC(=O)SCCNC(=O)CCNC(=O)C(O)C(C)(C)COP(=O)(O)OP(=O)(O)OC[C@H]1O[C@@H](n2cnc3c(N)ncnc32)[C@H](O)[C@@H]1OP(=O)(O)O (stereo not given in full)
Exam item: Given the listed records, identify the one among I and II with higher Km. Record your answer as the label of the chosen record.
Marked response: II
